- Protocol description: clinical
- Particulars: human, in vivo, iv, 15 mg/kg
Observable: clearance (mL/day/kg)

| Compound | Assay value |
| --- | --- |
| CN[C@H]1C(=O)N[C@@H]2Cc3ccc(cc3)Oc3cc4cc(c3O[C@@H]3O[C@H](C(=O)O)[C@@H](O)[C@H](O)[C@H]3NC(=O)CCCCCCCCC(C)C)Oc3ccc(cc3Cl)[C@@H](O)[C@@H]3NC(=O)[C@H](NC(=O)[C@@H]4NC(=O)[C@@H](NC2=O)c2cc(cc(O)c2Cl)Oc2cc1ccc2O)c1ccc(O)c(c1)-c1c(O[C@H]2O[C@H](CO)[C@@H](O)[C@H](O)[C@@H]2O)cc(O)cc1[C@@H](C(=O)NCCCN(C)C)NC3=O [dalbavancin] | 19.1 |
